Where do the numbers come from? From patent US20100260765A1.

assay.system: human KDR (human, UniProt P35968 20-1356)
Sequence (P35968 20-1356): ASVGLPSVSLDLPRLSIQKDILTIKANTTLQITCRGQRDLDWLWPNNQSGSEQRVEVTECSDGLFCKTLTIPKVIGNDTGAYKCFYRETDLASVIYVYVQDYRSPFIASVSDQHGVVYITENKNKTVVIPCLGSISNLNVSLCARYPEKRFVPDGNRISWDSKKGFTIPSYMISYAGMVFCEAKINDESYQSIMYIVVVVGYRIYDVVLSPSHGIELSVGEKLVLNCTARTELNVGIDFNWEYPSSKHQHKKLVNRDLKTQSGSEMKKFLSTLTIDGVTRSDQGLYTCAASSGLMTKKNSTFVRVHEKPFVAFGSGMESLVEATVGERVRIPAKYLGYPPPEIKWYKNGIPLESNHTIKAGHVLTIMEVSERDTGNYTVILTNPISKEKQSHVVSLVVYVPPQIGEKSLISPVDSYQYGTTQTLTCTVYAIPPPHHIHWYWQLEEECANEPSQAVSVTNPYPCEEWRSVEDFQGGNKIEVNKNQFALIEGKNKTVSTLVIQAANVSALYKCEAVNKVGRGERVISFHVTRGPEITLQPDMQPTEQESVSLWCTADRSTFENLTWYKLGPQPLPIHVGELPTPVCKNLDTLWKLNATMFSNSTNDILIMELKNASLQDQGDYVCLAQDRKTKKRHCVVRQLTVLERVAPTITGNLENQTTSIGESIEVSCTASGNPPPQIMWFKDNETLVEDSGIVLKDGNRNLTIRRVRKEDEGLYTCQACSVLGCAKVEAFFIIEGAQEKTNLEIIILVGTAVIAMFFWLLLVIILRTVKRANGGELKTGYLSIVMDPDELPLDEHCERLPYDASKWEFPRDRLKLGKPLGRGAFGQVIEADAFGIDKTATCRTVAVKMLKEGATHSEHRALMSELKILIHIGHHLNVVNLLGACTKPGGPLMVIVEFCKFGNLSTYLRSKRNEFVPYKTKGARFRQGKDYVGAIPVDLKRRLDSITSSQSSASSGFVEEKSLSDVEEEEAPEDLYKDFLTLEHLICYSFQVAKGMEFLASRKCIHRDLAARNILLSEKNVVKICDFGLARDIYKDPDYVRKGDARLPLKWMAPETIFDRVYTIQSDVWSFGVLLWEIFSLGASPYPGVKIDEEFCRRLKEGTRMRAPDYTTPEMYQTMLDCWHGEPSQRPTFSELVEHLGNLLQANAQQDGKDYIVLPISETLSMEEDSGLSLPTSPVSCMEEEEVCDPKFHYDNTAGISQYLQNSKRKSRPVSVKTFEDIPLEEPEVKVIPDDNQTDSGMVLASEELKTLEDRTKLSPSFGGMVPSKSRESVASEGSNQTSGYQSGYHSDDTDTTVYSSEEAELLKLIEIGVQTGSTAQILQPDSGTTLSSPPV
experiment.summary: cell-based or functional assay
So I've got a bunch of binders here, and I need their 6-keto Prostaglandin F1α release, EC50 (nM), N = 2 values.
Entry rule: numbers only, all in nM.

Ask: Dear colleague, I am looking for the recorded 6-keto Prostaglandin F1α release, EC50 (nM), N = 2 of the following binder: 22B8 (antibody, V domains shown, Fully human monoclonal antibody from a XenoMouse hybridoma (IgG2 or IgG4 strain), purified) VH: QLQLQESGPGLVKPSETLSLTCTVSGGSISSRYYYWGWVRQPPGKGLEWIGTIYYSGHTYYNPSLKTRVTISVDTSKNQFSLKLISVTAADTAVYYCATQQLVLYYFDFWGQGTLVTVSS VL: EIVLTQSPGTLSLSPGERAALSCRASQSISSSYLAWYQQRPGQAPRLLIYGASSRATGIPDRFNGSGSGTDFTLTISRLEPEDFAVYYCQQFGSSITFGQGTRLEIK
Reply: 5.6

Ask: Another binder: 24B3 (antibody, V domains shown, Fully human monoclonal antibody from a XenoMouse hybridoma (IgG2 or IgG4 strain), purified) VH: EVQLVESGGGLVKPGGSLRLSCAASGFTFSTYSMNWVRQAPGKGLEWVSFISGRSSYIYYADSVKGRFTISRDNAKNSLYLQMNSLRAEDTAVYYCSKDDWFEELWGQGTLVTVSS VL: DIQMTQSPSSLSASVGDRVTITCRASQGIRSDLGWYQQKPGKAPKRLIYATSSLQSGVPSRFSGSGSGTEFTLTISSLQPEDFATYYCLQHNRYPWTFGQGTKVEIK
Reply: 16.2

Ask: Another binder: 27A3 (antibody, V domains shown, Fully human monoclonal antibody from a XenoMouse hybridoma (IgG2 or IgG4 strain), purified) VH: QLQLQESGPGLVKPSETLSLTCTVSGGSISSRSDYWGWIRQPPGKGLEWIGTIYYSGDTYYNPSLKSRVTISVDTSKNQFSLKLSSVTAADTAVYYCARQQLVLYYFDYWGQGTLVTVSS VL: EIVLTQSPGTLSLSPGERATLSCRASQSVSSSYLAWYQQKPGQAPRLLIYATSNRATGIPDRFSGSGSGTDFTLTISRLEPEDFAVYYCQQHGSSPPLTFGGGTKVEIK
Reply: 5.7
